Parameter: inhibition at 24 h, 0.4 µM. Scope: all listed entries.
experiment: Inhibition of cell growth (microscopic cell count); assay type: cell-based, Buffalo green monkey; conditions: monkey, bgm-70 cells; 24 h, 0.4 μmol/L; read-out: % Reduction of cell growth

>>> obsvalue("CC1(c2ccc(Cl)cc2)OC(=O)C(O)=C1O (racemic)")
"12%"
>>> obsvalue("O=c1oc2ccc(O)cc2c(O)c1O")
"14.2%"
>>> obsvalue("O=C1OC2(CCCCC2)C(O)=C1O [Compound 4, 4-spiro-2-hydroxytetronic acid]")
"6%"

Alright, here's another compound for you.
`O=c1oc2ccc(Cl)cc2c(O)c1O` has a reported inhibition at 24 h, 0.4 µM of 21%

---

Experiment: Inhibition of cell growth (microscopic cell count)
Type: cell-based, Buffalo green monkey
Conditions: monkey, bgm-70 cells; 24 h, 100.0 μmol/L; read-out: % Reduction of cell growth
Protocol: a MASHII cell harvester and placed in a scintillation counter to determin incorporation of labelled compound and level of toxicity. BGM 70 cells ar seeded at a concentration of […] per well in a 24well tissue cultur plate. […] ^b BGM 70 cells are counted microscopically and comparisons are made. […] a letter code. The code is broken after the cells are counted. The effect of the compounds on the inhibition of cell growth is determined using BGM-70 cells grown in vitro. […]
Quick reference for inhibition at 24 h, 100 µM among some compounds
// note: answer is a bare numeric in %

Recorded inhibition at 24 h, 100 µM, per entry:
>>> obsvalue("O=c1oc2ccccc2c(O)c1O [Compound 5, 3,4-dihydroxy-2H-1-benzopyran-2-one]")
47.8
>>> obsvalue("O=c1oc2cc3c(cc2c(O)c1O)OCO3")
68

// recorded inhibition at 24 h, 100 µM for `O=c1oc2ccc(O)cc2c(O)c1O` : 52

---

# inhibition at 24 h, 2.5 µM annotations
assay: Inhibition of cell growth (microscopic cell count); assay type: cell-based, Buffalo green monkey; conditions: monkey, bgm-70 cells; 24 h, 2.5 μmol/L; read-out: % Reduction of cell growth
Express your answer in %, writing the number without its unit.

// field: inhibition at 24 h, 2.5 µM; key: CC1(c2ccc(Cl)cc2)OC(=O)C(O)=C1O (racemic) ; value = 60

The recorded inhibition at 24 h, 2.5 µM for entry `O=c1oc2ccc(Cl)cc2c(O)c1O` equals 56

Notebook: `O=c1oc2cc3c(cc2c(O)c1O)OCO3` , inhibition at 24 h, 2.5 µM read as 2

inhibition at 24 h, 2.5 µM for O=C1OC2(CCCCC2)C(O)=C1O [Compound 4, 4-spiro-2-hydroxytetronic acid] is 37

Recorded inhibition at 24 h, 2.5 µM (molecule `O=c1oc2ccc(O)cc2c(O)c1O` ): 0.4

---

inhibition at 48 h, 50 µM values, listed per item
test: Inhibition of cell growth (microscopic cell count); format: cell-based, Buffalo green monkey; details: monkey, bgm-70 cells; 48 h, 50.0 μmol/L; read-out: % Reduction of cell growth
Report the value in % with no unit label.

>>> obsvalue("O=c1oc2ccccc2c(O)c1O [Compound 5, 3,4-dihydroxy-2H-1-benzopyran-2-one]")
8.7

Note to self: inhibition at 48 h, 50 µM recorded for `O=c1oc2cc3c(cc2c(O)c1O)OCO3` was 52.2

`O=c1oc2ccc(O)cc2c(O)c1O` has a reported inhibition at 48 h, 50 µM of 22.1
